- Experiment notes: Cmax in Wistar rat at 150 mg/kg, ip
- Type: ADME, organism-based
- Parameters: dose 150 mg/kg, route intraperitoneal
- Condition set: in vivo
Parameter: Cmax

Record N[C@H]1CCCC[C@H]1NC(=O)P(=O)(O)O (relative stereo) , field Cmax: 144 µg/mL

* * *

- Experiment notes: Bioavailability in Wistar rat at 150 mg/kg, ip
- Type: ADME, organism-based
- Condition set: in vivo
Parameter: bioavailability
Answer with the figure and its unit, nothing else.

Record N[C@H]1CCCC[C@H]1NC(=O)P(=O)(O)O (relative stereo) , field bioavailability: 11.8%

* * *

- System tested: Collagenase 3 (Homo sapiens, UniProt P45452)
- Experiment notes: Inhibition of human recombinant MMP13
Parameter: IC50 (µM)
Number in µM, nothing else.

Record N[C@@H]1CCCC[C@H]1NC(=O)P(=O)(O)O (relative stereo) , field IC50: 55

* * *

- Experiment notes: Half life in C57B1 mouse at 150 mg/kg, po
- Format: ADME, organism-based
- Parameters: dose 150 mg/kg, route oral
- Condition set: in vivo
Parameter: half-life (h)
Number in h, nothing else.

Record N[C@H]1CCCC[C@H]1NC(=O)P(=O)(O)O (relative stereo) , field half-life: 13.5

* * *

- Experiment notes: Elimination half life in Wistar rat at 50 mg/kg, iv
- Format: ADME, organism-based
- Parameters: dose 50 mg/kg, route intravenous
- Condition set: in vivo
Parameter: half-life (min)
Number in min, nothing else.

Record N[C@H]1CCCC[C@H]1NC(=O)P(=O)(O)O (relative stereo) , field half-life: 18.8

* * *

- Experiment notes: AUC in Wistar rat at 150 mg/kg, ip
- Assay type: ADME, organism-based
- Parameters: dose 150 mg/kg, route intraperitoneal
- Condition set: plasma
Parameter: AUC (ng·h/mL)
Number in ng·h/mL, nothing else.

Record N[C@H]1CCCC[C@H]1NC(=O)P(=O)(O)O (relative stereo) , field AUC: 44600

* * *

- Experiment notes: Apparent permeability in C57B1 mouse colon in using diffusion chamber
- Assay type: ADME, tissue-based
- Condition set: not told
Parameter: Papp (×10⁻⁶ cm/s)
Number in ×10⁻⁶ cm/s, nothing else.

Record N[C@H]1CCCC[C@H]1NC(=O)P(=O)(O)O (relative stereo) , field Papp: 2.4

* * *

- Experiment notes: Apparent permeability in C57B1 mouse jejunum in using diffusion chamber
- Type: ADME, tissue-based
Parameter: Papp (×10⁻⁶ cm/s)
Number in ×10⁻⁶ cm/s, nothing else.

Record N[C@H]1CCCC[C@H]1NC(=O)P(=O)(O)O (relative stereo) , field Papp: 8.3

* * *

- Experiment notes: Cmax in C57B1 mouse at 150 mg/kg, po
- Assay type: ADME, organism-based
- Set-up: dose 150 mg/kg, route oral
- Condition set: in vivo
Parameter: Cmax (ng/mL)
Number in ng/mL, nothing else.

Record N[C@H]1CCCC[C@H]1NC(=O)P(=O)(O)O (relative stereo) , field Cmax: 544

* * *

- System tested: Neutrophil collagenase (Homo sapiens, UniProt P22894)
- Sequence (P22894 whole entry): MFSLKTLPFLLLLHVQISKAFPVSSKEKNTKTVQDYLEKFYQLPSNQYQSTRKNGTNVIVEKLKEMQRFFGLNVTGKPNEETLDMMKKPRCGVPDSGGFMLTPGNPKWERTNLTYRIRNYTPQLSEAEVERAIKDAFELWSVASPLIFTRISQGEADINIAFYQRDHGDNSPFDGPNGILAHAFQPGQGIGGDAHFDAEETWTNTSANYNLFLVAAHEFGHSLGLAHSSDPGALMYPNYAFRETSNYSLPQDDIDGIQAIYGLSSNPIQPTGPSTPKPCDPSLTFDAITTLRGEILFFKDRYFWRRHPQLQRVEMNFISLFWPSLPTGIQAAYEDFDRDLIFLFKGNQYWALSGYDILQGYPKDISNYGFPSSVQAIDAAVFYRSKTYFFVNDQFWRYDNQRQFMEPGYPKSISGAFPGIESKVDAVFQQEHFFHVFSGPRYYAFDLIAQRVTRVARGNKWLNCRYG
- Experiment notes: Inhibition of human recombinant MMP8
Parameter: pIC50
By convention, pIC50 is the negative base-10 log of a molar concentration.

Record N[C@@H]1CCCC[C@H]1NC(=O)P(=O)(O)O (relative stereo) , field pIC50: 4.30

* * *

- System tested: 72 kDa type IV collagenase (Homo sapiens, UniProt P08253)
- Sequence (P08253 whole entry): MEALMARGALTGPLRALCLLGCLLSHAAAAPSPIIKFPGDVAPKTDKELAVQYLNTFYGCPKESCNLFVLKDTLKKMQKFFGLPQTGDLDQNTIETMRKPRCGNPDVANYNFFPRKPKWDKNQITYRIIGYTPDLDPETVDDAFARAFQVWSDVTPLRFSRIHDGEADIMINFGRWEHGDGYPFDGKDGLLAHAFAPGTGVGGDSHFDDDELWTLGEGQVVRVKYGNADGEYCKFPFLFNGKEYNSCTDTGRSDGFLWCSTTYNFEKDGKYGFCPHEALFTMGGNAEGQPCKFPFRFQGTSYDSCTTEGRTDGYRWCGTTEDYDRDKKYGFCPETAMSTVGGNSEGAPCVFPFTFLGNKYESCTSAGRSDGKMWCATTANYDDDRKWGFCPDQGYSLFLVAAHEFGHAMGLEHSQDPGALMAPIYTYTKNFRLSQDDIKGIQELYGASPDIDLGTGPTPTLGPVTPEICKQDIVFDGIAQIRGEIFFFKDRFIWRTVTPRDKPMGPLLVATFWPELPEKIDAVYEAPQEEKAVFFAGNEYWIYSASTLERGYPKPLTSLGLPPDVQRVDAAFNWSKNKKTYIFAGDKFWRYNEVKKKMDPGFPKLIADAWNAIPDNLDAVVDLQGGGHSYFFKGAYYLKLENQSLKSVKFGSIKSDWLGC
- Experiment notes: Inhibition of human recombinant MMP2
Parameter: pIC50
By convention, pIC50 is the negative base-10 log of a molar concentration.

Record N[C@H]1CCCC[C@H]1NC(=O)P(=O)(O)O (relative stereo) , field pIC50: 5.40

* * *

compounds and their reported pIC50
- System tested: Disintegrin and metalloproteinase domain-containing protein 17 (Homo sapiens, UniProt P78536)
- Sequence (P78536 whole entry, the tested form may be a part): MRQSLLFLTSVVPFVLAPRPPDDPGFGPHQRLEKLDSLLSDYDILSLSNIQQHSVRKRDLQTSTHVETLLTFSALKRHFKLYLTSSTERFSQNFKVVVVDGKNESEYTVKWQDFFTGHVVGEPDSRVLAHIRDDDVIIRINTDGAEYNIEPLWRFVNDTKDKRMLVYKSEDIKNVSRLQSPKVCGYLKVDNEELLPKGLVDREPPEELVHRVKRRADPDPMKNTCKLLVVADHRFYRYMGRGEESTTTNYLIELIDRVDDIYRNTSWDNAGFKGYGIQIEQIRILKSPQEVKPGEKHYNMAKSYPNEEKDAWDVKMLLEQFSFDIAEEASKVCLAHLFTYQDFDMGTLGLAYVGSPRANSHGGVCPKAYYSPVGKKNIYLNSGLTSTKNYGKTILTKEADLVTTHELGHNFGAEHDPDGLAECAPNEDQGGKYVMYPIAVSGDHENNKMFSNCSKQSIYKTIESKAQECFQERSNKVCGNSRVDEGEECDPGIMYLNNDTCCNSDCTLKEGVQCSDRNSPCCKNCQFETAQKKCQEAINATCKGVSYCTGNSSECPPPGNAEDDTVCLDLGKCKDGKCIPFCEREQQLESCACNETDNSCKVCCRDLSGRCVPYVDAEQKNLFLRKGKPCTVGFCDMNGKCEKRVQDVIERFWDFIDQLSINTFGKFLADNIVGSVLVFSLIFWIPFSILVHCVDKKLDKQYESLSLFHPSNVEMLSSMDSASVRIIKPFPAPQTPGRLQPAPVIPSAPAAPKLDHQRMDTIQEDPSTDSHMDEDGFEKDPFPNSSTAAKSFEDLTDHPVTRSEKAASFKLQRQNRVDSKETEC
- Experiment notes: Inhibition of human recombinant TACE
pIC50: −log10 of the molar value.

N[C@H]1CCCC[C@H]1NC(=O)P(=O)(O)O (relative stereo)
< 4.00

Alright, here's another compound for you.
Record N[C@@H]1CCCC[C@H]1NC(=O)P(=O)(O)O (relative stereo) , field pIC50: < 4.00

* * *

compounds and their reported pIC50
- System tested: Macrophage metalloelastase (Homo sapiens)
- Sequence (P39900 whole entry): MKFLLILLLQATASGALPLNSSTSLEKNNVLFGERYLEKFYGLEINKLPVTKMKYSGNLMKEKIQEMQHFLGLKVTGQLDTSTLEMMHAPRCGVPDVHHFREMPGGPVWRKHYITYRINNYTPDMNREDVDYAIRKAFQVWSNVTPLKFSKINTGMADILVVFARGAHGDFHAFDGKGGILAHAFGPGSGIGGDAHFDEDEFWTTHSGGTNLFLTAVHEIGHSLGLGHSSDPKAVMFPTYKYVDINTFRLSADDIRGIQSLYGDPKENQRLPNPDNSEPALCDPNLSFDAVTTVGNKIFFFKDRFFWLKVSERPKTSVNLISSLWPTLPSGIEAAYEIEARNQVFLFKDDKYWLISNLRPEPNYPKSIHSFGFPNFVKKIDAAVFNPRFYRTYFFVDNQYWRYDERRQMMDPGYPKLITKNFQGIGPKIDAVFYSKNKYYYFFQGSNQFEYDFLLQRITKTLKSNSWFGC
- Experiment notes: Inhibition of human recombinant MMP12
pIC50: −log10 of the molar value.

N[C@@H]1CCCC[C@H]1NC(=O)P(=O)(O)O (relative stereo)
< 4.00

Alright, here's another compound for you.
Record N[C@H]1CCCC[C@H]1NC(=O)P(=O)(O)O (relative stereo) , field pIC50: < 4.00

* * *

- System tested: UniProtKB P14780
- Sequence (P14780 whole entry): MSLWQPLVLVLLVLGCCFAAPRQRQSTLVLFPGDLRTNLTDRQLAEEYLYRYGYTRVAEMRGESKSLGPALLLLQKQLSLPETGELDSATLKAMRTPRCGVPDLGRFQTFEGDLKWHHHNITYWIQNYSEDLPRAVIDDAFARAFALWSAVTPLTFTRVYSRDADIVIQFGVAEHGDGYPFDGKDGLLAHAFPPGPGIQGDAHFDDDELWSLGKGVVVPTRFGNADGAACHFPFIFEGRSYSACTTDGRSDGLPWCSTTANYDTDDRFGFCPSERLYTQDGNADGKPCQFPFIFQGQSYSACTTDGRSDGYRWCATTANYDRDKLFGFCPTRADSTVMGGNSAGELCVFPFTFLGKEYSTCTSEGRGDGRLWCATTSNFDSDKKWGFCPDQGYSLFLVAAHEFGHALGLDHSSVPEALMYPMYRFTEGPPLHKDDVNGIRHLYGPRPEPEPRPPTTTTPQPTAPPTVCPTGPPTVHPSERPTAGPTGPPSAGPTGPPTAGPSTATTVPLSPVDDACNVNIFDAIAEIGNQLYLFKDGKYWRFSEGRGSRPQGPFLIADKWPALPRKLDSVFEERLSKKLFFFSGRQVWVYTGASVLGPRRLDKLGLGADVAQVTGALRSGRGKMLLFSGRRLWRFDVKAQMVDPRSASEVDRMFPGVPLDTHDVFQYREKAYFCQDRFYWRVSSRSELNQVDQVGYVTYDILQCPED
- Experiment notes: Inhibition of human recombinant MMP9
Parameter: IC50 (µM)
Number in µM, nothing else.

Record N[C@H]1CCCC[C@H]1NC(=O)P(=O)(O)O (relative stereo) , field IC50: 20

* * *

- Experiment notes: Cmax in Wistar rat at 150 mg/kg, po
- Type: ADME, organism-based
- Design: dose 150 mg/kg, route oral
- Condition set: in vivo
Parameter: Cmax (ng/mL)
Number in ng/mL, nothing else.

Record N[C@H]1CCCC[C@H]1NC(=O)P(=O)(O)O (relative stereo) , field Cmax: 712

* * *

- Experiment notes: Apparent permeability in Wistar rat jejunum in using diffusion chamber
- Assay type: ADME, tissue-based
Parameter: Papp

Record N[C@H]1CCCC[C@H]1NC(=O)P(=O)(O)O (relative stereo) , field Papp: 7.9 ×10⁻⁶ cm/s

* * *

- System tested: Interstitial collagenase (Homo sapiens)
- Sequence (P03956 whole entry): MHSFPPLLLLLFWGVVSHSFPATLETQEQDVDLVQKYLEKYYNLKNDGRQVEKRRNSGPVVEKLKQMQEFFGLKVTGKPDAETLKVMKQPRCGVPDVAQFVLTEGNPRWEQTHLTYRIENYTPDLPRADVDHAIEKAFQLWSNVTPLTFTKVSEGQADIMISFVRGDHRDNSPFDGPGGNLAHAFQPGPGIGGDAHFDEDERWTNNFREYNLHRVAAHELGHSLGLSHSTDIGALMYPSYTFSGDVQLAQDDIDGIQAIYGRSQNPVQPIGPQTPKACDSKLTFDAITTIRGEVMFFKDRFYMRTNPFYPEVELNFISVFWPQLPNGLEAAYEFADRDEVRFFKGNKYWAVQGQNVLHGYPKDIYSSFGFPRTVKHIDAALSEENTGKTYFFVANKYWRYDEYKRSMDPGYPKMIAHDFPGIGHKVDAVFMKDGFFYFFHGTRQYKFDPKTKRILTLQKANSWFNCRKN
- Experiment notes: Inhibition of human recombinant MMP1
Parameter: IC50 (µM)
Number in µM, nothing else.

Record N[C@@H]1CCCC[C@H]1NC(=O)P(=O)(O)O (relative stereo) , field IC50: 90

* * *

- Experiment notes: Apparent permeability in Wistar rat ileum in using diffusion chamber
- Assay type: ADME, tissue-based
Parameter: Papp (×10⁻⁶ cm/s)
Number in ×10⁻⁶ cm/s, nothing else.

Record N[C@H]1CCCC[C@H]1NC(=O)P(=O)(O)O (relative stereo) , field Papp: 7.01

* * *

- Experiment notes: Clearance in Wistar rat at 50 mg/kg, iv
- Type: ADME, organism-based
- Set-up: dose 50 mg/kg, route intravenous
- Condition set: in vivo
Parameter: clearance (L/h/kg)
Number in L/h/kg, nothing else.

Record N[C@H]1CCCC[C@H]1NC(=O)P(=O)(O)O (relative stereo) , field clearance: 0.414

* * *

- System tested: Stromelysin-1 (Homo sapiens, UniProt P08254)
- Sequence (P08254 whole entry): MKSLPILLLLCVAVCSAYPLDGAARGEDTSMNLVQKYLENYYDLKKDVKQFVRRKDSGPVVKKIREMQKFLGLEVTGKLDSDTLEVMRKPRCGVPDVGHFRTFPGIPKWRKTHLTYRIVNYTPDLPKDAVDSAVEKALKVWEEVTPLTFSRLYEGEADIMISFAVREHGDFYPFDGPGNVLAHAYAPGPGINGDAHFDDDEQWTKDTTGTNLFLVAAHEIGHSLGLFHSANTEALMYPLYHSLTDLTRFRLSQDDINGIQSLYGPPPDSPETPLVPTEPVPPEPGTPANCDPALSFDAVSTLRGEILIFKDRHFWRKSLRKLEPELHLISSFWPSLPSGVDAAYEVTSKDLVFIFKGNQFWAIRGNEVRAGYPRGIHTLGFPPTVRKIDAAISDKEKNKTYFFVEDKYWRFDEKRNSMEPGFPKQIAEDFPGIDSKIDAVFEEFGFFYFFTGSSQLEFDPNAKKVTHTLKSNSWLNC
- Experiment notes: Inhibition of human recombinant MMP3
Parameter: pIC50
By convention, pIC50 is the negative base-10 log of a molar concentration.

Record N[C@@H]1CCCC[C@H]1NC(=O)P(=O)(O)O (relative stereo) , field pIC50: 4.60

* * *

- Experiment notes: Tmax in Wistar rat at 150 mg/kg, ip
- Assay type: ADME, organism-based
- Set-up: dose 150 mg/kg, route intraperitoneal
- Condition set: in vivo
Parameter: Tmax (s)
Number in s, nothing else.

Record N[C@H]1CCCC[C@H]1NC(=O)P(=O)(O)O (relative stereo) , field Tmax: 30

* * *

- Experiment notes: Apparent permeability in Wistar rat colon in Using diffusion chamber
- Type: ADME, tissue-based
- Condition set: not told
Parameter: Papp (×10⁻⁶ cm/s)
Number in ×10⁻⁶ cm/s, nothing else.

Record N[C@H]1CCCC[C@H]1NC(=O)P(=O)(O)O (relative stereo) , field Papp: 9.27
